- assayed.target: T1, Axl protein (human, UniProt P30530 26-451)
- T1 construct: extracellular domain; also called human Axl; hAxl
- T1 sequence (looked up): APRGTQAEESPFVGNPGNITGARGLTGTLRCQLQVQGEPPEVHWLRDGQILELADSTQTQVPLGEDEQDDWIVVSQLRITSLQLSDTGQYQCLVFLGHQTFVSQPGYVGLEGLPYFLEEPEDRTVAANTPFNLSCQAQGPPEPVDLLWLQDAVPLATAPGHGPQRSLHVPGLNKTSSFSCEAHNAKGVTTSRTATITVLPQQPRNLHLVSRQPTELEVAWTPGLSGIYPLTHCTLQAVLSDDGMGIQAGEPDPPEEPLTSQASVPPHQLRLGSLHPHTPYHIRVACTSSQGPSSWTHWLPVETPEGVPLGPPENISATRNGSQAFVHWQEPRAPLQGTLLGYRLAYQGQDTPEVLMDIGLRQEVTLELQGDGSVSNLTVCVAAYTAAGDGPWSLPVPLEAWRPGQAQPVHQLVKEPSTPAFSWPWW
- assay.method.text: ELISA, 1:9 dilution, pH 6.0 over pH 7.4
Classification field: met = Affinity ELISA CPE mutant ratio (1:9, pH 6.0/7.4) at or over 3 ratio; not met = Affinity ELISA CPE mutant ratio (1:9, pH 6.0/7.4) under 3 ratio.

binder: LC-V029N (antibody, V domains shown) VH: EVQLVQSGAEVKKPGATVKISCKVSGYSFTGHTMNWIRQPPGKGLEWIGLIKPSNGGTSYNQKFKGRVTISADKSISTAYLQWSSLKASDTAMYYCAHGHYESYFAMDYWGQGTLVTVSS VL: DIQMTQSPSSLSASVGDRVTITCKASQDNSSAVAWYQQKPGQAPRLLIYWASTRHTGVPSRFSGSGSGTEFTLTISSLQPDDFATYYCQEHFSTPLTFGQGTKVEIK
label: not met
//
binder: LC-F092G (antibody, V domains shown) VH: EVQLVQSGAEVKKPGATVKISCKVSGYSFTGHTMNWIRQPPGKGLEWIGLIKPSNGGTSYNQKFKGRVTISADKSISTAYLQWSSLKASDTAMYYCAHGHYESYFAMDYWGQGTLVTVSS VL: DIQMTQSPSSLSASVGDRVTITCKASQDVSSAVAWYQQKPGQAPRLLIYWASTRHTGVPSRFSGSGSGTEFTLTISSLQPDDFATYYCQEHGSTPLTFGQGTKVEIK
label: met
//
binder: LC-P095V (antibody, V domains shown) VH: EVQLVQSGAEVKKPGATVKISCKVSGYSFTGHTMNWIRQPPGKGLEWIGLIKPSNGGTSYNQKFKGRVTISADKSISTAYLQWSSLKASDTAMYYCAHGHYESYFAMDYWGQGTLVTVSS VL: DIQMTQSPSSLSASVGDRVTITCKASQDVSSAVAWYQQKPGQAPRLLIYWASTRHTGVPSRFSGSGSGTEFTLTISSLQPDDFATYYCQEHFSTVLTFGQGTKVEIK
label: not met
//
binder: LC-L096R (antibody, V domains shown) VH: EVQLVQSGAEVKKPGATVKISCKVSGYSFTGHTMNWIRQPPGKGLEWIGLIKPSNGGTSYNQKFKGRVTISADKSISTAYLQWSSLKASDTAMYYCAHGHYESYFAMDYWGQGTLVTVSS VL: DIQMTQSPSSLSASVGDRVTITCKASQDVSSAVAWYQQKPGQAPRLLIYWASTRHTGVPSRFSGSGSGTEFTLTISSLQPDDFATYYCQEHFSTPRTFGQGTKVEIK
label: not met
//
binder: LC-W050F (antibody, V domains shown) VH: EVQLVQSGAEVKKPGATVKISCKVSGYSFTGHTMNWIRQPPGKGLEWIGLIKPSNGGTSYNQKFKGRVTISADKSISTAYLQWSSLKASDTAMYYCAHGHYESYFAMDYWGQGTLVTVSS VL: DIQMTQSPSSLSASVGDRVTITCKASQDVSSAVAWYQQKPGQAPRLLIYFASTRHTGVPSRFSGSGSGTEFTLTISSLQPDDFATYYCQEHFSTPLTFGQGTKVEIK
label: met
//
binder: LC-P095E (antibody, V domains shown) VH: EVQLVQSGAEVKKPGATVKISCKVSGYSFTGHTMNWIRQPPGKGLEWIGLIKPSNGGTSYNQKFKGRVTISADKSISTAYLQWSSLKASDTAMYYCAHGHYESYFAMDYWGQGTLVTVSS VL: DIQMTQSPSSLSASVGDRVTITCKASQDVSSAVAWYQQKPGQAPRLLIYWASTRHTGVPSRFSGSGSGTEFTLTISSLQPDDFATYYCQEHFSTELTFGQGTKVEIK
label: met
//
binder: LC-P095D (antibody, V domains shown) VH: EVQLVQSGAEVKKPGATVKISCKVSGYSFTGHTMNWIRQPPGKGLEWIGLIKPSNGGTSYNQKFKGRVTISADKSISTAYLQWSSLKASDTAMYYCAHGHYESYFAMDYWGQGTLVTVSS VL: DIQMTQSPSSLSASVGDRVTITCKASQDVSSAVAWYQQKPGQAPRLLIYWASTRHTGVPSRFSGSGSGTEFTLTISSLQPDDFATYYCQEHFSTDLTFGQGTKVEIK
label: not met
//
binder: LC-P095H (antibody, V domains shown) VH: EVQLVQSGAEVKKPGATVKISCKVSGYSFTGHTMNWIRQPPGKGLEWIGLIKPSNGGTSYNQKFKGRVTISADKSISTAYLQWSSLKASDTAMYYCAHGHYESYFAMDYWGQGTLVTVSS VL: DIQMTQSPSSLSASVGDRVTITCKASQDVSSAVAWYQQKPGQAPRLLIYWASTRHTGVPSRFSGSGSGTEFTLTISSLQPDDFATYYCQEHFSTHLTFGQGTKVEIK
label: not met

Ref: patent US20190177417A1
